Entries and their measured relative IC50 follow.
System: normal primary NK cells, pool 2 (3 donors) (IL-2 2.5 ng/mL)
Test: relative IC50 (inflection point of fitted viability curve, relative to fitted max inhibition); higher = less sensitive
Conditions: 72 h
property: relative IC50 (nM)

molecule=O=C(O)C(=O)O.[NH-][C@@H]1CCCC[C@H]1[NH-].[Pt+2] measured_target="normal primary NK cells, pool 2 (3 donors) (IL-2 2.5 ng/mL)" property="relative IC50" recorded_result=9290
molecule="O=C(/C=C\\n1cnc(-c2cc(C(F)(F)F)cc(C(F)(F)F)c2)n1)NNc1cnccn1 [Selinexor]" measured_target="normal primary NK cells, pool 2 (3 donors) (IL-2 2.5 ng/mL)" property="relative IC50" recorded_result=52.4
molecule=CCn1c(-c2nonc2N)nc2c(C#CC(C)(C)O)ncc(OC[C@H]3CCCNC3)c21 measured_target="normal primary NK cells, pool 2 (3 donors) (IL-2 2.5 ng/mL)" property="relative IC50" recorded_result=2190
molecule=CCn1c(-c2nonc2N)nc2cnc(Oc3cccc(NC(=O)c4ccc(OCCN5CCOCC5)cc4)c3)cc21 measured_target="normal primary NK cells, pool 2 (3 donors) (IL-2 2.5 ng/mL)" property="relative IC50" recorded_result=1970
molecule=CCOC(=O)CCNc1cc(N2CCc3ccccc3CC2)nc(-c2ccccn2)n1 measured_target="normal primary NK cells, pool 2 (3 donors) (IL-2 2.5 ng/mL)" property="relative IC50" recorded_result=3280
molecule=COC(=O)c1ccc2c(c1)NC(=O)/C2=C(\Nc1ccc(N(C)C(=O)CN2CCN(C)CC2)cc1)c1ccccc1 measured_target="normal primary NK cells, pool 2 (3 donors) (IL-2 2.5 ng/mL)" property="relative IC50" recorded_result=1580
molecule="Cn1cc(C2=Nc3cc(NC(=O)C(N)C4CCCCC4)cc4c3C2=CNNC4=O)cn1 (stereo not drawn)" measured_target="normal primary NK cells, pool 2 (3 donors) (IL-2 2.5 ng/mL)" property="relative IC50" recorded_result=2370
molecule=C[C@@H]1C[C@H]2O[C@@H]2/C=C\C=C\C(=O)Cc2c(Cl)c(O)cc(O)c2C(=O)O1 measured_target="normal primary NK cells, pool 2 (3 donors) (IL-2 2.5 ng/mL)" property="relative IC50" recorded_result=75.2

###

Reported percent inhibition of viability values follow for various compounds
System: YT (IL-2 2.5 ng/mL)
Test: percent inhibition of viability; higher = more inhibition
Settings: 72 h; 10 nM
property: percent inhibition of viability (%)

compound="O=C1NC(=O)/C(=C/c2ccc3nccc(-c4ccncc4)c3c2)S1 (max concentration tested 10000 nM)" unit_abbreviation=% recorded_result=-2.62
compound="C#Cc1cccc(Nc2ncnc3cc4c(cc23)OCCOCCOCCO4)c1 [Icotinib] (max concentration tested 10000 nM)" unit_abbreviation=% recorded_result=0.7
compound="CS(=O)(=O)CCNCc1ccc(-c2ccc3ncnc(Nc4ccc(OCc5cccc(F)c5)c(Cl)c4)c3c2)o1 [Lapatinib] (max concentration tested 1000 nM)" unit_abbreviation=% recorded_result=-1.08
compound="COc1cc2c(NC3CCN(C(C)C)CC3)nc(C3CCCCC3)nc2cc1OCCCN1CCCC1 [UNC0638] (max concentration tested 10000 nM)" unit_abbreviation=% recorded_result=-1.09
compound="O=C(Nc1cccc(Cl)c1)Nc1ncc(CCNc2ncnc3ccsc23)s1 [SNS-314] (max concentration tested 1000 nM)" unit_abbreviation=% recorded_result=7.82
compound="CN(C)C(=O)c1cc2cnc(Nc3ccc(N4CCNCC4)cn3)nc2n1C1CCCC1 [NVP-LEE011] (max concentration tested 10000 nM)" unit_abbreviation=% recorded_result=-2.71
compound="COc1cccc2c1C(=O)c1c(O)c3c(c(O)c1C2=O)C[C@@](O)(C(C)=O)C[C@@H]3O[C@H]1C[C@H](N)[C@H](O)[C@H](C)O1 [Daunorubicin] (max concentration tested 1000 nM)" unit_abbreviation=% recorded_result=-7.78
compound="O=C(/C=C\\n1cnc(-c2cc(C(F)(F)F)cc(C(F)(F)F)c2)n1)NNc1cnccn1 [Selinexor] (max concentration tested 10000 nM)" unit_abbreviation=% recorded_result=13.2
compound="CCOC(=O)CCNc1cc(N2CCc3ccccc3CC2)nc(-c2ccccn2)n1 [GSK-J4] (max concentration tested 100000 nM)" unit_abbreviation=% recorded_result=-1.98
compound="Cc1cnc(NC(=O)Nc2cc(Br)c(C)cc2OC[C@@H]2CNCCO2)cn1 [Rabusertib] (max concentration tested 1000 nM)" unit_abbreviation=% recorded_result=1.16
compound="COc1cc2ncnc(Nc3ccc(F)c(Cl)c3)c2cc1OCCCN1CCOCC1 [Gefitinib] (max concentration tested 10000 nM)" unit_abbreviation=% recorded_result=5.08
compound="COC(=O)C[C@](O)(CCCC(C)(C)O)C(=O)O[C@@H]1C(OC)=C[C@]23CCCN2CCc2cc4c(cc2[C@H]13)OCO4 [Omacetaxine] (max concentration tested 10000 nM)" unit_abbreviation=% recorded_result=19.8
